Assignment: determine reported pKi for the given compounds.
system: Prostaglandin D2 receptor 2 (Homo sapiens)
Sequence (Q9Y5Y4 whole entry): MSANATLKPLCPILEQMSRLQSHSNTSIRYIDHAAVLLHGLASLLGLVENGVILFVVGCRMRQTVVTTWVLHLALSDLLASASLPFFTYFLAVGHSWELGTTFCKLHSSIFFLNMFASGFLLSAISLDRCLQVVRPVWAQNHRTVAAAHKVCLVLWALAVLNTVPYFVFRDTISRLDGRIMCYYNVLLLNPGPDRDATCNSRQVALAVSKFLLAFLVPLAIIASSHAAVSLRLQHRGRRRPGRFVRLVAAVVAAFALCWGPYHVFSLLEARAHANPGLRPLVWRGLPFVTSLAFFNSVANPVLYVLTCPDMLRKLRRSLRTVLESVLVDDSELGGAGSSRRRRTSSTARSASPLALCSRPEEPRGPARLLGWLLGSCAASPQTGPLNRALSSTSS
assay remarks: Radioligand Binding Assay: Radioligand binding assay using CRTH2.
Answers are plain numbers, as −log10 of the molar value.

Cc1c(Cc2cccnc2S(=O)(=O)c2ccc(Cl)cc2)c2cc(F)ccc2n1CC(=O)O :: 8.15

# next compound below
`Cc1c(Cc2cccnc2S(=O)(=O)c2ccc(F)cc2)c2cc(F)ccc2n1CC(=O)O` yielded pKi of 8.70
